# Method Summary: Selectivity index, ratio of IC50 for human Huh7ET cells to EC50 for Hepatitis C virus
# Type: toxicity, cell-based, Huh-7
# Experimental Conditions: read-out: Ratio IC50/EC50
For each entry below, report its selectivity ratio value.

Ask: Please look up its selectivity ratio: "CN(c1cc2ncc(=O)[nH]c2cc1NC(=S)Nc1cccc(C(F)(F)F)c1)C1CCCCC1"
Result: < 3.9

Ask: "CN(c1cc2ncc(=O)[nH]c2cc1NC(=S)NC(=O)c1ccco1)C1CCCCC1" ?
Result: 9.6

Ask: "CN(c1cc2ncc(=O)[nH]c2cc1NC(=S)Nc1cccc2ccccc12)C1CCCCC1" ?
Result: < 2.2

Ask: "CN(c1cc2ncc(=O)[nH]c2cc1NC(=N)NCc1ccc(OC(F)(F)F)cc1)C1CCCCC1" ?
Result: 0.9

Ask: "COc1ccc(-c2csc(Nc3cc4[nH]c(=O)cnc4cc3N(C)C3CCCCC3)n2)cc1" ?
Result: < 0.75

Ask: "CN(c1cc2ncc(=O)[nH]c2cc1NC(=S)NC(=O)c1cccc2ccccc12)C1CCCCC1" ?
Result: 1.82

Ask: "CN1CCN(c2cc3ncc(=O)[nH]c3cc2Nc2nc(-c3ccccc3)cs2)CC1" ?
Result: 2.2

Ask: "CN(c1cc2ncc(=O)[nH]c2cc1NC(=O)Nc1cccc2ccccc12)C1CCCCC1" ?
Result: 0.5

Ask: "CN(c1cc2ncc(=O)[nH]c2cc1NC(=S)NC(=O)c1ccc(Cl)nc1)C1CCCCC1" ?
Result: 2.1

Ask: "CN(c1cc2ncc(=O)[nH]c2cc1Nc1nc(-c2ccco2)cs1)C1CCCCC1" ?
Result: 1

Ask: "CN(c1cc2ncc(=O)[nH]c2cc1NC(=N)NCc1ccccn1)C1CCCCC1" ?
Result: < 2.4

Ask: "CC(C)c1nc2cc(N(C)C3CCCCC3)c(Nc3nc(-c4ccccc4)cs3)cc2[nH]c1=O" ?
Result: 7.8

Ask: "COc1ccc(CNC(=N)Nc2cc3[nH]c(=O)cnc3cc2N(C)C2CCCCC2)cc1" ?
Result: < 0.98

Ask: "CN(c1cc2ncc(=O)[nH]c2cc1Nc1nc(-c2cccc3ccccc23)cs1)C1CCCCC1" ?
Result: 8.4

Ask: "CN(c1cc2ncc(=O)[nH]c2cc1Nc1nc(-c2ccc(-c3ccccc3)cc2)cs1)C1CCCCC1" ?
Result: < 4.1

Ask: "CCCN(CCC)c1cc2ncc(=O)[nH]c2cc1Nc1nc(-c2ccccc2)cs1" ?
Result: 8.3

Ask: "CSCCc1nc2cc(N(C)C3CCCCC3)c(Nc3nc(-c4ccccc4)cs3)cc2[nH]c1=O" ?
Result: < 4.3

Ask: "CN(c1cc2ncc(=O)[nH]c2cc1NC(=N)NCc1ccc(Cl)cc1)C1CCCCC1" ?
Result: 1.12

Ask: "CN(c1cc2ncc(=O)[nH]c2cc1N1CC(=O)N(c2ccccc2)C1=S)C1CCCCC1" ?
Result: 1.4
